Data origin, for the record: the supplement of paper PMC11061612

system: NCI-H2595 (Mesothelioma); test: combination Emax (second highest fraction inhibited in the dose matrix, 72 h); higher = more inhibition; extreme values may be limits of the assay
Parameter combination Emax: see the listing below.
Answer using only a numeral; do not append any unit.

Please review the entries below; each comes with its answer.
# compound, observed-measurement
measured = [
    ("COc1nnc2ccc(N3CCC(c4ccc(OCCN5CCN(C)C(=O)[C@H]5C)cc4)CC3)nn12 [AZD5153] + CC1(C)CCC(CN2CCN(c3ccc(C(=O)NS(=O)(=O)c4ccc(NCC5CCOCC5)c([N+](=O)[O-])c4)c(Oc4cnc5[nH]ccc5c4)c3)CC2)=C(c2ccc(Cl)cc2)C1 [Venetoclax] (first compound max 1 µM, 7x7, partner max 1 µM)", 0.375),
    ("CN(CCO)CC[C@H](CSc1ccccc1)Nc1ccc(S(=O)(=O)NC(=O)c2ccc(N3CCC([C@@H](O)c4ccccc4-c4ccc(Cl)cc4)CC3)cc2)cc1S(=O)(=O)C(F)(F)F [AZD4320] + Cn1cnc2c(F)c(Nc3ccc(Br)cc3Cl)c(C(=O)NOCCO)cc21 [Selumetinib] (first compound max 1 µM, 7x7, partner max 3 µM)", 0.275),
]

Note: attention shifts to another entry.
### Prompt Tell us which combination Emax value is on record for CN(CCO)CC[C@H](CSc1ccccc1)Nc1ccc(S(=O)(=O)NC(=O)c2ccc(N3CCC([C@@H](O)c4ccccc4-c4ccc(Cl)cc4)CC3)cc2)cc1S(=O)(=O)C(F)(F)F [AZD4320] + CS(=O)(=O)CCNCc1ccc(-c2ccc3ncnc(Nc4ccc(OCc5cccc(F)c5)c(Cl)c4)c3c2)o1 [Lapatinib] (first compound max 1 µM, 7x7, partner max 10 µM)
### Response 0.329
